Origin of values: PubChem BioAssay (NCI)

Some compounds, each annotated with its measured growth.
Tested on: NCI-H460 lung
Test description: NCI-60 one-dose screen, 48 h (100 = growth as untreated, 0 = no growth, -100 = all killed)
Measurement parameters: 10 µM
Protocol: Growth inhibition of the NCI-H460 human Non-Small Cell Lung tumor cell line is measured as a screen for anti-cancer activity. Cells are grown in 96 well plates and exposed to the test compound for 48 hours. Compounds are tested at a single concentration, which is 10^-5 M for most compounds. The reported endpoint is percent growth (GI% or GIPRCNT), where numbers from 0 - 100% represent growth inhibition, and numbers from -100% - 0 represent cell death. […]
About 83,000 compounds went through this panel and 20% of them were active in at least one assay; those are over-represented in the sample as a whole. Calls of active or inactive are those of the source. How the source made its calls: active means growth percent below 10; inactive means the rest.

// solved cases for growth follow
compound=Cc1ccc(S(=O)(=O)Oc2ccc3c4c(c(=O)oc3c2)CCCCC4)cc1 experimental_system="NCI-H460 lung" measured_endpoint=growth assay_result="37.2% (inactive)"
compound=COc1cc(-c2cc(/C=C3\C(=O)Nc4cc(Cl)ccc43)[nH]n2)cc(OC)c1OC experimental_system="NCI-H460 lung" measured_endpoint=growth assay_result="34.7% (inactive)"
compound=NC1=NC(=O)C(c2ccccc2)(c2ccccc2)S1 experimental_system="NCI-H460 lung" measured_endpoint=growth assay_result="113% (inactive)"

Query string: Look up growth for this compound: CC/C(=N\N=C(/CC)c1ccc(Br)cc1)c1ccc(Br)cc1
Result string: 105% (inactive)

Query string: Look up growth for this compound: O=C1C(c2ccccc2)C2C=CC(C2)N1O (stereo unspecified)
Result string: 111% (inactive)

Query string: Look up growth for this compound: CC1=C(N2CCOCC2)C(N2CCOCC2)=C(C)C(=O)C1=O
Result string: 104% (inactive)

* * *

Some compounds, each annotated with its measured growth.
System: MDA-MB-231 breast
Test description: NCI-60 one-dose screen, 48 h (100 = growth as untreated, 0 = no growth, -100 = all killed)
Measurement parameters: 10 µM
Experimental: Cells are grown in 96 well plates and exposed to the test compound for 48 hours. Compounds are tested at a single concentration, which is 10^-5 M for most compounds. The reported endpoint is percent growth (GI% or GIPRCNT), where numbers from 0 - 100% represent growth inhibition, and numbers from -100% - 0 represent cell death. For example, a value of 40 represents 60% growth inhibition. A value of 0 means no net growth occurred over the course of the experiment. […]
The panel holds about 83,000 compounds, 20% with a hit somewhere; the sample as a whole holds those more often.
Value expressed in %; do not type the unit.

Query string: Look up growth for this compound: Cc1cc(N(CCCNc2ccnc3cc(Cl)ccc23)Cc2ccc3c(c2)OCO3)nc(N2CCCCC2)n1
Result string: -47.2

* * *

Some molecules, each annotated with its measured growth.
System: SF-268 CNS
Test description: NCI-60 one-dose screen, 48 h (100 = growth as untreated, 0 = no growth, -100 = all killed)
Measurement parameters: 10 µM
The panel holds about 83,000 compounds, 20% with a hit somewhere; the sample as a whole holds those more often.
Value expressed in %; do not type the unit.

// solved cases for growth follow
molecule=O=C(Nc1cccc(Br)c1)c1cc(=O)[nH]c2ccccc12 assay_result=94.8
molecule=COc1ccc(/C=C/C(=O)Nc2ccc(-c3nc4ccc(F)cc4s3)cc2)cc1 assay_result=112

Query string: Look up growth for this molecule: COc1cc(Nc2ncnc(Nc3ccc4c(n3)NC(=O)C(C)(C)O4)n2)cc(OC)c1OC
Result string: -21

* * *

Test system: A498 renal
Test description: NCI-60 one-dose screen, 48 h
Measurement parameters: 10 µM
Compounds without any hit were thinned out: in the full panel of roughly 83,000, 20% have a hit. The source made the active and inactive calls. The calls were made as follows: active = growth percent below 10; inactive = the rest.
Bench note: report the call from active, inactive

Example results:
compound=Nc1ncn([C@@H]2O[C@H](CO)[C@@H](O)[C@H]2O)c(=O)n1 category_label=inactive
compound="COc1ccc2c(c1)N(CCO)C1=C(C(=O)OC1)C2c1ccc(OC)c(OC)c1 (stereo not given)" category_label=inactive
compound=NC1=NC(=O)C(c2ccccc2)(c2ccccc2)S1 category_label=inactive

Query string: What did this assay record as the result for COc1ccc(-c2nnc(-c3c(-c4ccccc4)nc4ncccn34)o2)cc1OC ?
Result string: inactive

Query string: What did this assay record as the result for COc1ccc(/C=C2/CN(C(=O)c3ccccc3F)C/C(=C\c3ccc(OC)cc3)C2=O)cc1 ?
Result string: inactive

Query string: What did this assay record as the result for CCN(CC)CCOc1nc2ccc(OC)cc2c2c1-c1ccc(OC)cc1C2=O ?
Result string: inactive

Query string: What did this assay record as the result for CCOC(=O)C(CSC(c1ccccc1)(c1ccccc1)c1ccccc1)NC(=O)C(CSC(c1ccccc1)(c1ccccc1)c1ccccc1)NC(c1ccccc1)(c1ccccc1)c1ccccc1 (stereo not given) ?
Result string: inactive

* * *

Tested on: RPMI-8226 leukemia
Test description: NCI-60 one-dose screen, 48 h (100 = growth as untreated, 0 = no growth, -100 = all killed)
Measurement parameters: 10 µM
About 83,000 compounds went through this panel and 20% of them were active in at least one assay; those are over-represented in the sample as a whole.
Some compounds, each annotated with its measured growth.
Value expressed in %; do not type the unit.

compound=N#Cc1c(C#N)c(SSc2c(C#N)c(C#N)c(N)n2-c2ccccc2)n(-c2ccccc2)c1N assay_result=125
compound=O=[N+]([O-])c1ccc(Oc2cc(Cl)c(Cl)cc2Cl)c(C(F)(F)F)c1 assay_result=97.3

Query string: Requested read-out growth, target or system RPMI-8226 leukemia, entry COc1ccccc1CNCCN1C(=O)c2ccc3c4c(ccc(c24)C1=O)C(=O)N(CCNCc1ccccc1OC)C3=O
Result string: -67.7

Query string: Requested read-out growth, target or system RPMI-8226 leukemia, entry COc1ccc(Oc2nc(NC3CCCC3)nc(Sc3ccc(OC)cc3)n2)cc1
Result string: 63.7

Query string: Requested read-out growth, target or system RPMI-8226 leukemia, entry c1ccc(C(NC2CC3CCC2C3)c2ccccc2)cc1 (stereo not given)
Result string: 96.2

Query string: Requested read-out growth, target or system RPMI-8226 leukemia, entry COc1cc(-c2cc(/C=C/C(=O)c3ccc(F)c(F)c3)[nH]n2)cc(OC)c1OC
Result string: 22.6

Query string: Requested read-out growth, target or system RPMI-8226 leukemia, entry COc1cc([C@@H]2c3cc4c(cc3C(Br)[C@H]3COC(=O)[C@H]23)OCO4)cc(OC)c1OC (stereo not given in full)
Result string: -25.8

* * *

Test system: HCC-2998 colon
Test description: NCI-60 one-dose screen, 48 h
Measurement parameters: 10 µM
This is part of a sample that, as a whole, favours compounds with a hit. Of some 83,000 tested, about 20% had one in any assay. Activity calls are given as the source filed them. How the source made its calls: active means growth percent below 10; inactive means the rest.
Bench note: report the call from Yes (active), No (inactive)

compound=O=C(c1ccc(Cl)cc1Cl)N1CCOCC1 category_label=No
compound="COc1ccc(OC)c2c1C(=O)CC2C (configuration not stated)" category_label=No
compound="CCCCCCN1C(=O)C2=C(c3ccc(Cl)cc3)Nc3c(c(C)nn3-c3ccccc3)C2c2ccccc21 (configuration not stated)" category_label=No
compound=COc1cc(-c2cc(/C=C/C(=O)c3ccc4c(c3)OCO4)[nH]n2)cc(OC)c1OC category_label=No
compound=O=C1/C(=C\c2ccc(Cl)cc2)CN(C(=O)c2ccccc2)C/C1=C\c1ccc(Cl)cc1 category_label=Yes
compound=N#Cc1ncc(Br)c(NC2CCCCCC2)n1 category_label=No

Query string: What did this assay record as the result for CCOC(=O)c1ccc(NC(=O)Nc2ncc(Cl)cc2Cl)cc1 ?
Result string: No

Query string: What did this assay record as the result for Cc1cccc2c1O/C(=C\c1ccc([N+](=O)[O-])o1)C2=O ?
Result string: Yes

Query string: What did this assay record as the result for CNc1ncc(-c2ccc(C(F)(F)F)cc2)c(NC2CCCCCC2)n1 ?
Result string: No

Query string: What did this assay record as the result for CC(=O)N1N=C(c2ccc(Cl)cc2)CC1c1sc(Cl)nc1Cl (configuration not stated) ?
Result string: No

Query string: What did this assay record as the result for CCOC(=O)C(NC(=O)C(Cl)Cl)C(O)c1ccccc1 (configuration not stated) ?
Result string: No

Query string: What did this assay record as the result for CC(C)(Cl)CCC1=C(Cl)C(=O)c2ccccc2C1=O ?
Result string: No

Query string: What did this assay record as the result for Clc1ccccc1N=Cc1ccc2c(c1)OCO2 ?
Result string: No

Query string: What did this assay record as the result for C#Cc1ccc(-n2c(/C=C/c3ccc(Cl)c(F)c3)nc3ncccc3c2=O)cc1 ?
Result string: Yes

Query string: What did this assay record as the result for COc1ccc(-c2nn(-c3cccc(NC(=O)c4ccc(N5CCOCC5)c(C(F)(F)F)c4)c3)cc2-c2ccncc2)cc1Cl ?
Result string: No

Query string: What did this assay record as the result for COc1ccc(-c2nc(-c3nc4ccc(OC)cc4[nH]3)cc3c2[nH]c2ccccc23)cc1 ?
Result string: No

Query string: What did this assay record as the result for CC[C@H](C)C(=O)O[C@H]1CCC=C2C=C[C@H](C)C(CCC3C[C@@H](O)CC(=O)O3)[C@H]21 (some centres not stated) ?
Result string: No

Query string: What did this assay record as the result for COc1cc(/C=C\c2cc(OC)c(OC)c(OC)c2)cc(NS(=O)(=O)c2ccc(Cl)cc2)c1OC ?
Result string: No

Query string: What did this assay record as the result for CCCC(F)C(=O)O (configuration not stated) ?
Result string: No

Query string: What did this assay record as the result for Nc1c(C(=O)Nc2ccccc2)sc2nc3c(cc12)C(O)CCC3 (configuration not stated) ?
Result string: No

Query string: What did this assay record as the result for CCCCCCN(CCCCCC)CC(O)c1ccc2c3c(cccc13)CC2 (configuration not stated) ?
Result string: No

Query string: What did this assay record as the result for CCN(CC)CCSCCCNc1c2ccc(Cl)cc2nc2ccc(OC)cc12 ?
Result string: Yes
